# Species on record: Homo sapiens
# experimental.details: Selectivity ratio of IC50 for CDK1/Cyclin-A2 (unknown origin) to IC50 for CDK6/Cyclin-D3 (unknown origin)
quantity.measured: Ratio IC50
Number only, please.

Observe how each entry below is paired with its result.
CC1=Nc2c(F)cc(-c3nc(Nc4ccc(N5CCN(CCO)CC5)cn4)ncc3F)cc2C12CCCC2; 55
CCC1(C)C(C)=Nc2c(F)cc(-c3nc(Nc4ccc(C5CCN(C)CC5)cn4)ncc3F)cc21 (stereo not drawn); 14
CCN1CCC(c2ccc(Nc3ncc(F)c(-c4cc(F)c5c(c4)C4(CCCC4)C(C)=N5)n3)nc2)CC1; 268
CCN1CCN(c2ccc(Nc3ncc(F)c(-c4ccc5c(c4)C(C)(CC)C(C)=N5)n3)nc2)CC1 (stereo not drawn); 25
CC1=Nc2ccc(-c3nc(Nc4ccc(C5CCN(C)CC5)cn4)ncc3F)cc2C12CCCC2; 12

Fill in the blank: the reported Ratio IC50 of CCC1(C)C(C)=Nc2c(F)cc(-c3nc(Nc4ccc(C5CCNCC5)cn4)ncc3F)cc21 (stereo not drawn) is ____. 18

Thanks! And CC1=Nc2c(F)cc(-c3nc(Nc4ccc(N5CCNCC5)cn4)ncc3F)cc2C12CCCC2 ? 25

Similarly, CCC1(C)C(C)=Nc2ccc(-c3nc(Nc4ccc(N5CCN(C)CC5)cn4)ncc3F)cc21 (stereo not drawn) ? 22

Hello, the source for this data is ChEMBL document CHEMBL4251601, in case you need it.
